Kindly supply the reported t½ Ratio (pH 7.4/pH 6.0) values for the records listed here.
targetOfAssay: T1, cynomolgus monkey IL-33 expressed with a C-terminal hexahistidine tag (cynomolgus monkey)
T1 construct: also called MfIL-33-6His; Mf-IL-33-6His
T1 chain: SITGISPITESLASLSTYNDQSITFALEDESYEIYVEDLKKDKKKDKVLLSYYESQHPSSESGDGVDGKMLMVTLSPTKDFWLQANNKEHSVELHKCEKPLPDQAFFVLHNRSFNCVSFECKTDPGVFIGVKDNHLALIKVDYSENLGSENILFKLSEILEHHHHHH
procedureSummary: SPR 25C, pH6.0 chase, mAb captured
Give your answer as a number; write no unit.

Consider the binder shown here: H1M9559N (antibody, mouse IgG1, V domains shown, Human variable domains, mouse IgG1 Fc (H1M)) VH: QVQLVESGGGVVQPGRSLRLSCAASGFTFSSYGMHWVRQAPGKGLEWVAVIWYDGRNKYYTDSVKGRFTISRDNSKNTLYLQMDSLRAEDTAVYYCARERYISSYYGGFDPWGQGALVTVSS VL: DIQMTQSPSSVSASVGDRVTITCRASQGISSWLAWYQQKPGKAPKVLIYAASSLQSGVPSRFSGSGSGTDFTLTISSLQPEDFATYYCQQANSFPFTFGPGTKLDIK What is its recorded t½ Ratio (pH 7.4/pH 6.0)?
1.2

Which t½ Ratio (pH 7.4/pH 6.0) is listed for H4H9672P (antibody, human IgG4, V domains shown, Human IgG4 Fc (H4H)) VH: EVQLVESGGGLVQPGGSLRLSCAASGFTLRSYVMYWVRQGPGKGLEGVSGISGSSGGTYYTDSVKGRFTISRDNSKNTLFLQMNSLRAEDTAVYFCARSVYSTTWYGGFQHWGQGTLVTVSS VL: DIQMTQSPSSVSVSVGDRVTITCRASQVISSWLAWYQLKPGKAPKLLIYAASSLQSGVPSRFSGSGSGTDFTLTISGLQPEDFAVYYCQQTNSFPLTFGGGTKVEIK ?
0.7

Which t½ Ratio (pH 7.4/pH 6.0) is listed for H4H9670P (antibody, V domains shown, Human IgG4 Fc (H4H)) VH: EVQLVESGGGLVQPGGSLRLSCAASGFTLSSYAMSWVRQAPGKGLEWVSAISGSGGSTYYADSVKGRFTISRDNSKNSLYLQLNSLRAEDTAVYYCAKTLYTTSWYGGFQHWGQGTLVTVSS VL: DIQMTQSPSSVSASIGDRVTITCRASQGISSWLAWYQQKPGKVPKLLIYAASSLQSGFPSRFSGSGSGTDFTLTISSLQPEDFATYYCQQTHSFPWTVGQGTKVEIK ?
0.2
